# assayed-target: Troponin, cardiac muscle (Homo sapiens, UniProt P19429+P45379+P63316)
# method-notes: Fluorescence-based biochemical high throughput dose response assay for activators of the calcium sensitivity of cardiac Regulated Thin Filaments (RTF). [Related pubchem assays (depositor defined):AID493008, AID493018, AID504382, AID504383]
# Assay type: protein-complex assay
Calls of active or inactive are those of the source.
Thanks in advance; please answer with one of these: class 1 = active, class 0 = inactive

Worked cases, answers included:
- line-notation: "COc1ccc(CCNC(=O)COC(=O)c2cc(=O)[nH]c3ccccc23)cc1"
  qualitative-label: "class 0"
- line-notation: "COc1ccccc1-c1nnc(SCc2nc3ccccc3s2)n1C"
  qualitative-label: "class 0"
- line-notation: "O=C(O)c1ccc(NC(=S)NC(=O)c2ccc(-c3ccccc3)cc2)cc1"
  qualitative-label: "class 0"
- line-notation: "Oc1ccc2ccc3cccc[n+]3c2c1"
  qualitative-label: "class 1"

Continue with the molecule presented below.
Prompt: What call does the record list for Cc1ccccc1-n1nnnc1SCC(C)C ?
Completion: class 0

====

# assayed-target: Paired box protein Pax-8 (Homo sapiens)
# Sequence (Q06710 whole entry): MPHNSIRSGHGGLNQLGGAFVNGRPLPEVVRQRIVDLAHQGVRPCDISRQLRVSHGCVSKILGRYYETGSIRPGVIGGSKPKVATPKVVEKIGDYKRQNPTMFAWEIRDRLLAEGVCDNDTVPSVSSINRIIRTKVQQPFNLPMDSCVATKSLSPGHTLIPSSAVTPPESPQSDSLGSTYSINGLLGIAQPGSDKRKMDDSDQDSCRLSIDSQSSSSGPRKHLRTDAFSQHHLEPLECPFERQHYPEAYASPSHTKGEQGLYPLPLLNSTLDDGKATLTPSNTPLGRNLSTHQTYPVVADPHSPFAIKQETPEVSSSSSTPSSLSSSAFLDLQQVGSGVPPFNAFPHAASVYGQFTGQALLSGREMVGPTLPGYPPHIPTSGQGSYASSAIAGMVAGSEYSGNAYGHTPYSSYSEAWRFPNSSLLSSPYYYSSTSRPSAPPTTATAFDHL
# method-notes: PAX8 transcriptional activity inhibition in RMG-I – RMG-I cells, luciferase, cherry-pick, dose response (AID 687027);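 also: luciferase reporter driven by Pax8 target thyroperoxidase promoter measured by SteadyGlo luminescence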
# Assay type: functional, cell-based
Active and inactive are the calls of the source.
property-name: AC50

Prompt: // AC50 lookup, key: C[C@@H]1CCCCO[C@@H](CN(C)Cc2ccc(C(F)(F)F)cc2)[C@H](C)CN([C@H](C)CO)C(=O)c2cc(NC(=O)Nc3ccccc3)ccc2O1
Completion: 4.86 µM (active)

Prompt: # lookup: AC50 of COc1cccc(-c2ccc([C@H]3[C@@H](CO)N(C(=O)c4ccccn4)[C@H]3C#N)cc2)c1
Completion: 7.31 µM (active)

Prompt: Param item = Cc1noc(C)c1S(=O)(=O)N(C)C[C@H]1OCCCC[C@@H](C)Oc2ccc(NS(=O)(=O)c3ccc(Cl)cc3)cc2C(=O)N([C@@H](C)CO)C[C@H]1C ; retrieve measured AC50.
Completion: 10.9 µM (active)

Prompt: Quick one: AC50 of CCC1CN2CCc3cc(OC)c(OC)cc3C2CC1CC1NCCc2c1[nH]c1ccc(O)cc21 (centres undefined) ?
Completion: < 0.26 µM (active)

====

List of EC50 values.
# method-notes: Trypanosoma cruzi growth suppression in host cells – NIH3T3 host cells, beta-gal luminescence, confirmation (AID 2044);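 also: intracellular parasites grown in NIH/3T3 mouse fibroblasts as host cells; luminescent beta-galactosidase reporter signal from transgenic T. cruzi replicating inside host cells; inhibitors lower the luminescence signal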
# Type: functional, cell-based
Activity calls are given as the source filed them.

Previously resolved entries follow.
- molecule: "O=C(N/N=C/c1ccc(O)c2ncccc12)c1cccc(Br)c1"
  EC50: "1660 nM (active)"
- molecule: "COc1cc(CNCCc2ccc(S(N)(=O)=O)cc2)ccc1OCc1ccc(Cl)cc1"
  EC50: "430 nM (active)"
- molecule: "CCOC(=O)C1(CCOc2ccccc2)CCN(Cc2cccc3nonc23)CC1"
  EC50: "1490 nM (active)"
- molecule: "CCCCCCn1c2c(c(=N)c3c1CCC3)CCC2"
  EC50: "< 100 nM (active)"
- molecule: "O=C(NC1CCCC1)C(c1ccccc1)N(Cc1cccnc1)C(=O)Cc1cccs1 (stereo unspecified)"
  EC50: "1450 nM (active)"

API: the following record is the query input.
Prompt: Give its EC50 value. Item: CC(C)/C=C1\CC/C(=C\c2cccnc2)C1=O
Completion: 1140 nM (active)
